Each entry below carries its recorded pIC50.
target: PI3Kβ (Homo sapiens (Human)); test: TR-FRET enzymatic activity assay against PI3K isoforms; conditions: PI3Kβ, TR-FRET, 2×Km ATP, 30 minutes at 25° C.
Sequence (P42338 whole entry, one chain of several, canonical isoform): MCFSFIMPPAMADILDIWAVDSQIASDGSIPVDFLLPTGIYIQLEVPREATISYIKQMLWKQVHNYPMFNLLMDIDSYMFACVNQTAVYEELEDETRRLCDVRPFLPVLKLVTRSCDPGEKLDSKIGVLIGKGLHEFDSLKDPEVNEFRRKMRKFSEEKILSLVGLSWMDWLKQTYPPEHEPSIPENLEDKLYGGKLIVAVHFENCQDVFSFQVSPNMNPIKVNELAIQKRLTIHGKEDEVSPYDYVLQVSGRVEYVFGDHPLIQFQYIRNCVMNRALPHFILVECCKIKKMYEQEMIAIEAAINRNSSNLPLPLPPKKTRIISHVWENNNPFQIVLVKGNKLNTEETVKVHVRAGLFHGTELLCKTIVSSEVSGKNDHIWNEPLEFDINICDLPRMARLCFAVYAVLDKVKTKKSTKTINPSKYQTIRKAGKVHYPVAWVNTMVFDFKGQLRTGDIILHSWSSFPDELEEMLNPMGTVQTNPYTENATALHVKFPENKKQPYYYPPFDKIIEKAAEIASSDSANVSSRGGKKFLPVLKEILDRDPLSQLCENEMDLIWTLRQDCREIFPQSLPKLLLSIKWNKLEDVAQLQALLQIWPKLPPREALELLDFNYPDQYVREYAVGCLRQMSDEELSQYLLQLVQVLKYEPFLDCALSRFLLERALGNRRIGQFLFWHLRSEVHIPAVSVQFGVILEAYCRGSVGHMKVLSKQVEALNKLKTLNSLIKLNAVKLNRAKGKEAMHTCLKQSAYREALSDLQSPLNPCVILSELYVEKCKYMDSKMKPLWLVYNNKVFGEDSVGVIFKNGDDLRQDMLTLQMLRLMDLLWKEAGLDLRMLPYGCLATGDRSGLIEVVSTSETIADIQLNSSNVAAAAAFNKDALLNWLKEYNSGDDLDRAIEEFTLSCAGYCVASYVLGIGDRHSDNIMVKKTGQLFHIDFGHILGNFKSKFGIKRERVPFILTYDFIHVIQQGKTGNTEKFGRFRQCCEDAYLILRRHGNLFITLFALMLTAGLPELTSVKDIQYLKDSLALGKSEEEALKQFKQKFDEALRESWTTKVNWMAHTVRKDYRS
Scale note: pIC50 = -log10(concentration in M).

Solved cases below.
C[C@H](Nc1ncnn2ccnc12)c1nc2cccc(Cl)c2c(=O)n1N(C)CCN 7.03
C[C@H](Nc1nc(N)nc(N)c1C#N)c1nc2cccc(Cl)c2c(=O)n1CCN(C)C 6.34
CC(=O)NCCCn1c([C@H](C)Nc2ncnc(N)c2C#N)nc2cccc(Cl)c2c1=O 6.96

Next:
Req: Form field: reported pIC50 of C[C@H](Nc1nc(N)nc(N)c1Cl)c1nc2cccc(Cl)c2c(=O)n1[C@H]1C[C@@H](O)C1
Resp: 6.72

----------
biological target: UniProt:P48736; assay: TR-FRET enzymatic activity assay against PI3K isoforms; conditions: 2×Km ATP, 30 minutes at 25° C.
pIC50: −log10 of the molar value.
Outcome label depends on pIC50 relative to 6: at/above gives Y, below gives N.

Here are 5 compounds together with their reported answers.
compound	system	label
NCCCn1c([C@@H](Nc2ncnc3scnc23)C2CC2)nc2cccc(Cl)c2c1=O	UniProt:P48736	N
C[C@H](Nc1nc(N)nc(N)c1C#N)c1nc2cccc(Cl)c2c(=O)n1Cc1cn[nH]c1	UniProt:P48736	Y
CC[C@H](Nc1nc(N)nc(N)c1C#N)c1nc2cccc(Cl)c2c(=O)n1CCCC#N	UniProt:P48736	Y
COCCCn1c([C@H](C)Nc2ncnc(N)c2C#N)nc2c(Cl)ccc(Cl)c2c1=O	UniProt:P48736	N
C[C@H](Nc1ncnc(N)c1C#N)c1nc2cccc(Cl)c2c(=O)n1N(CCN)Cc1ccccc1 [Compound 13]	UniProt:P48736	N

Req: Determine whether measured pIC50 meets or exceeds 6 for C[C@H](Nc1ncnc(N)c1Cl)c1nc2cccc(Cl)c2c(=O)n1CCCN
Resp: N

Req: Determine whether measured pIC50 meets or exceeds 6 for C[C@H](Nc1ncnc(N)c1C#N)c1nc2cccc(Cl)c2c(=O)n1CC1CCNCC1
Resp: N

Req: Determine whether measured pIC50 meets or exceeds 6 for C[C@H](Nc1ncnc(N)c1C#N)c1nc2cccc(Cl)c2c(=O)n1C[C@H](O)CO
Resp: N

Req: Determine whether measured pIC50 meets or exceeds 6 for C[C@H](Nc1ncnn2ccnc12)c1nc2cccc(Cl)c2c(=O)n1CCCN
Resp: N

Req: Determine whether measured pIC50 meets or exceeds 6 for CC(CN)n1c([C@H](C)Nc2ncnc(N)c2C#N)nc2cccc(Cl)c2c1=O (stereo partly shown)
Resp: N

Req: Determine whether measured pIC50 meets or exceeds 6 for C[C@H](Nc1nc(N)nc(N)c1C#N)c1nc2cccc(Cl)c2c(=O)n1C[C@H]1CCNC1
Resp: N

Req: Determine whether measured pIC50 meets or exceeds 6 for CC(CCO)n1c([C@H](C)Nc2ncnc(N)c2C#N)nc2cccc(Cl)c2c1=O (stereo partly shown)
Resp: N

----------
Target: PI3Kγ (Homo sapiens (Human))
Sequence (P48736 whole entry, canonical isoform): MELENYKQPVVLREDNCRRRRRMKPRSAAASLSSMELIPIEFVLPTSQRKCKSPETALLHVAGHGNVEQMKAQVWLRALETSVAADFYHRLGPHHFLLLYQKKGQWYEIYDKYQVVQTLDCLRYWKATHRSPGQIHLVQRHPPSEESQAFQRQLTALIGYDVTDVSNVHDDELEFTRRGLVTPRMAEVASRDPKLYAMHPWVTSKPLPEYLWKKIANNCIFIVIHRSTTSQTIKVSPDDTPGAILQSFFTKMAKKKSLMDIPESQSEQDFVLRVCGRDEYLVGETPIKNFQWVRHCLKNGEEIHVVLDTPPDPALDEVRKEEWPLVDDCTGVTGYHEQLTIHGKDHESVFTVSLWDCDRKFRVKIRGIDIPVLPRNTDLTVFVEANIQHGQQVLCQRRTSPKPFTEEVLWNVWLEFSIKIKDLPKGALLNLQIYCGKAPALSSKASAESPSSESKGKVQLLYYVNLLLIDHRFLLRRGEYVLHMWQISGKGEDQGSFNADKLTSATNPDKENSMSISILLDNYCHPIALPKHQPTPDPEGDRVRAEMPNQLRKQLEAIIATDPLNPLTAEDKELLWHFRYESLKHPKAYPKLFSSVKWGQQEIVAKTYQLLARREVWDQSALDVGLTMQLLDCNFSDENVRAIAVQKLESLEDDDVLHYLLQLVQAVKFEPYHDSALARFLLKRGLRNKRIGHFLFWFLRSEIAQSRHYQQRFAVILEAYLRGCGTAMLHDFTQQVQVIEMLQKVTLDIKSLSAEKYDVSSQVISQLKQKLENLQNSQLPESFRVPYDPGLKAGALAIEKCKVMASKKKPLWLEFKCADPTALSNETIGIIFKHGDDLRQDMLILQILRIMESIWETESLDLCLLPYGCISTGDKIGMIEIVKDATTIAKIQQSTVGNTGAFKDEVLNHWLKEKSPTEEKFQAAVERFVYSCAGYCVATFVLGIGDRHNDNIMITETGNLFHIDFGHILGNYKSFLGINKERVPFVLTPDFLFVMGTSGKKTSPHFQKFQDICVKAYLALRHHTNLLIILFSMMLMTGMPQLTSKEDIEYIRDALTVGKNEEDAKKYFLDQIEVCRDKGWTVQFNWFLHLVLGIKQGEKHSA
Experiment: TR-FRET enzymatic activity assay against PI3K isoforms
Conditions: 2×Km ATP, 30 minutes at 25° C.
Text: The compounds of formula (I) were characterized for their enzymatic activity against the PI3K isoforms. […] TR-FRET monitored the formation of 3,4,5-inositol triphosphate molecule that competed with fluorescently labeled PIP3 for binding to the GRP-1 pleckstrin homology domain protein.
endpointLabel: pIC50
Scale note: pIC50 = -log10(concentration in M).

Solved cases below.
compound	pIC50
C[C@H](Nc1nc(N)nc(N)c1C#N)c1nc2c(Cl)ccc(Cl)c2c(=O)n1[C@H]1C[C@@H](O)C1 [Compound 103]	5.59
N#Cc1c(N)nc(N)nc1N[C@H](c1nc2c(Cl)ccc(Cl)c2c(=O)n1[C@H]1C[C@@H](O)C1)C1CC1 [Compound 96]	6.02

Req: Form field: reported pIC50 of N#CCCn1c([C@@H](Nc2nc(N)nc(N)c2Cl)C2CC2)nc2cccc(Cl)c2c1=O [Compound 63]
Resp: 6.10

Req: Form field: reported pIC50 of C[C@H](Nc1nc(N)nc(N)c1C#N)c1nc2cccc(Cl)c2c(=O)n1CC1CCCNC1 (stereo in doubt) [Compound 123]
Resp: 5.89

Req: Form field: reported pIC50 of N#CCCCn1c([C@@H](Nc2nc(N)nc(N)c2C#N)C2CC2)nc2cccc(Cl)c2c1=O [Compound 113]
Resp: 7.23

Req: Form field: reported pIC50 of CS(=O)(=O)CCCn1c([C@@H](Nc2nc(N)nc(N)c2C#N)C2CC2)nc2c(Cl)ccc(Cl)c2c1=O [Compound 119]
Resp: 5.96

Req: Form field: reported pIC50 of C[C@H](Nc1nc(N)nc(N)c1C#N)c1nc2cccc(Cl)c2c(=O)n1CCCC#N [Compound 110]
Resp: 6.74

Req: Form field: reported pIC50 of N#CCCCCn1c([C@@H](Nc2nc(N)nc(N)c2C#N)C2CC2)nc2cccc(Cl)c2c1=O [Compound 114]
Resp: 6.89

Req: Form field: reported pIC50 of NC(=O)CCCCn1c([C@@H](Nc2nc(N)nc(N)c2Cl)C2CC2)nc2cccc(Cl)c2c1=O [Compound 59]
Resp: 5.66

----------
Each entry below carries its recorded pIC50.
target: PI3Kδ (Homo sapiens (Human)); assay: TR-FRET enzymatic activity assay against PI3K isoforms; conditions: 2×Km ATP, 30 minutes at 25° C.
Scale note: pIC50 = -log10(concentration in M).

N#Cc1c(N)nc(N)nc1N[C@H](c1nc2c(Cl)cc(F)cc2c(=O)n1[C@H]1C[C@@H](O)C1)C1CC1 8.70
C[C@H](Nc1ncnc(N)c1C#N)c1nc2cccc(Cl)c2c(=O)n1CCCCN 8.52

Req: Form field: reported pIC50 of C[C@H](Nc1nc(N)nc(N)c1C#N)c1nc2cccc(Cl)c2c(=O)n1CCN(C)C
Resp: 7.62

Req: Form field: reported pIC50 of C[C@H](Nc1ncnc2scnc12)c1nc2cccc(Cl)c2c(=O)n1CCCN
Resp: 7.92

----------
Each entry below carries its recorded pIC50.
target: PI3Kδ (Homo sapiens (Human), UniProt O00329); assay: TR-FRET enzymatic activity assay against PI3K isoforms; assay type: biochemical; settings: 2×Km ATP, 30 minutes at 25° C.
Sequence (O00329 whole entry, canonical isoform): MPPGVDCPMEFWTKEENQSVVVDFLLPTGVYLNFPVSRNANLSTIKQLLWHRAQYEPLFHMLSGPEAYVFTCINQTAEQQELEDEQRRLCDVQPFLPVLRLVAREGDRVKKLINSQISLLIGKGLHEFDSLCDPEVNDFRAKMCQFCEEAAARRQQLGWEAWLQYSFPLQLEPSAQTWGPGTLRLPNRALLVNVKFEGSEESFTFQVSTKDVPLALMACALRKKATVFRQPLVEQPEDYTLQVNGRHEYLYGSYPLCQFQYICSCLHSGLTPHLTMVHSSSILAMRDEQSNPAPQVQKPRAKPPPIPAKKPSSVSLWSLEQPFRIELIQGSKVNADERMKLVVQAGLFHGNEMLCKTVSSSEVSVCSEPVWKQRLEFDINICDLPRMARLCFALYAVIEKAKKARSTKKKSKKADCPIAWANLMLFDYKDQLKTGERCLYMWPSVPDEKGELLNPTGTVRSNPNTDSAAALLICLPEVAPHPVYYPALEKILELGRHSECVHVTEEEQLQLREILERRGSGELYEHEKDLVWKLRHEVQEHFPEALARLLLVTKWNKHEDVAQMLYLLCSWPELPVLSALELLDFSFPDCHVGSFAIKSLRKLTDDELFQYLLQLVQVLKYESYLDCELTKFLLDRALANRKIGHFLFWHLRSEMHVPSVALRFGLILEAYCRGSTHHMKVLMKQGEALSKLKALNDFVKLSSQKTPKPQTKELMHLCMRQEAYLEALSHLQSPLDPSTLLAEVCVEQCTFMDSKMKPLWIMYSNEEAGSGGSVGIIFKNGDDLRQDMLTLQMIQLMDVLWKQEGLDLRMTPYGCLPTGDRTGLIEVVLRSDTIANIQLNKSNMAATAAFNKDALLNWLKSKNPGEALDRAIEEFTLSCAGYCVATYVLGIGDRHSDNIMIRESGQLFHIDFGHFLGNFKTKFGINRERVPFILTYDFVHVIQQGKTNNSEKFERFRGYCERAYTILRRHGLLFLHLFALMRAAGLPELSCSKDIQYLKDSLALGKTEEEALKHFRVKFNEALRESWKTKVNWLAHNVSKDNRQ
Sequence (P27986 whole entry partner, canonical isoform): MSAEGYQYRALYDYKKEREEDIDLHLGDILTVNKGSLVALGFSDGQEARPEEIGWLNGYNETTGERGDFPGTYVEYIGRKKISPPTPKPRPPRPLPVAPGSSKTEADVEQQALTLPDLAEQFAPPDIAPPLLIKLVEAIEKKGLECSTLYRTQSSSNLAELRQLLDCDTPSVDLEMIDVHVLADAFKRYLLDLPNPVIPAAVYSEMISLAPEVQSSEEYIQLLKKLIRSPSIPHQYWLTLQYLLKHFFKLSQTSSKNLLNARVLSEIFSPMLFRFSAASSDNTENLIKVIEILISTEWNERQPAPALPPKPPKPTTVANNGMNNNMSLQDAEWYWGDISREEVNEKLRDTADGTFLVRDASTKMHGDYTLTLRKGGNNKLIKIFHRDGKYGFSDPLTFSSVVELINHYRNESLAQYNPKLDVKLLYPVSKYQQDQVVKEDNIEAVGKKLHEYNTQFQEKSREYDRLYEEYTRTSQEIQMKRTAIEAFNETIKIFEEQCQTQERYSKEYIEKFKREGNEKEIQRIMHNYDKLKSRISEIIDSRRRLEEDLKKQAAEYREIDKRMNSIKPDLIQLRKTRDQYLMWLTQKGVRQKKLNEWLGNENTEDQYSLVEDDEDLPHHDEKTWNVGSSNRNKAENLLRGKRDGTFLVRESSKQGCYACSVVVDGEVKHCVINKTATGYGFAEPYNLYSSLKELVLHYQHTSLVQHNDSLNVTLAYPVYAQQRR
Scale note: pIC50 = -log10(concentration in M).

Solved cases below.
molecule	resultNumber
CC(C)NCC(O)CCn1c([C@H](C)Nc2nc(N)nc(N)c2C#N)nc2cccc(Cl)c2c1=O (stereo partly shown)	9.00
N#CCCn1c([C@@H](Nc2nc(N)nc(N)c2C#N)C2CC2)nc2cccc(Cl)c2c1=O	8.52
C[C@H](Nc1ncnc(N)c1C#N)c1nc2cccc(Cl)c2c(=O)n1[C@H]1C[C@@H](O)C1	8.30

Req: Form field: reported pIC50 of N#CCCCCn1c([C@@H](Nc2nc(N)nc(N)c2C#N)C2CC2)nc2cccc(Cl)c2c1=O
Resp: 9.10

----------
target: PI3Kδ (Homo sapiens (Human)); assay: TR-FRET enzymatic activity assay against PI3K isoforms; conditions: 2×Km ATP, 30 minutes at 25° C.
pIC50: −log10 of the molar value.
Outcome label depends on pIC50 relative to 8: at/above gives T, below gives F.

Here are 7 compounds together with their reported answers.
compound	label
N#Cc1c(N)nc(N)nc1N[C@H](c1nc2c(Cl)cc(F)cc2c(=O)n1CCCC(N)=O)C1CC1	T
C[C@H](Nc1nc(N)nc(N)c1C#N)c1nc2cccc(Cl)c2c(=O)n1CCCN1CCOCC1	T
C[C@H](Nc1nc(N)nc(N)c1C#N)c1nc2cccc(Cl)c2c(=O)n1N(CCN)Cc1ccccc1 [Compound 10]	F
C[C@H](Nc1ncnc(N)c1C#N)c1nc2cccc(Cl)c2c(=O)n1CC1CNCCO1 (some centres unmarked)	F
C[C@H](Nc1nc(N)nc(N)c1C#N)c1nc2cccc(Cl)c2c(=O)n1CCCNc1ccccn1	T
C[C@H](Nc1nc(N)nc(N)c1C#N)c1nc2cccc(Cl)c2c(=O)n1Cc1nc[nH]n1	T
C[C@H](NC(=O)c1nccnc1N)c1nc2cccc(Cl)c2c(=O)n1CCCN	F

# next compound below
Req: Determine whether measured pIC50 meets or exceeds 8 for C[C@H](Nc1nc(N)nc(N)c1C#N)c1nc2cccc(Cl)c2c(=O)n1C[C@H]1CCNC1
Resp: T

----------
molecular target: PI3Kγ (Homo sapiens (Human)); assay: TR-FRET enzymatic activity assay against PI3K isoforms; details: 2×Km ATP, 30 minutes at 25° C.
Each entry below carries its recorded IC50.
Supply the numeric figure in µM, leaving out any unit text.

Solved cases below.
compound	unit	resultNumber
CS(=O)(=O)CCCn1c([C@@H](Nc2nc(N)nc(N)c2C#N)C2CC2)nc2cccc(Cl)c2c1=O [Compound 118]	µM	0.57
C[C@H](Nc1nc(N)nc(N)c1C#N)c1nc2cccc(Cl)c2c(=O)n1Cc1nc[nH]n1 [Compound 81]	µM	0.32
NC(=O)CCCn1c([C@@H](Nc2nc(N)nc(N)c2Cl)C2CC2)nc2cccc(Cl)c2c1=O [Compound 69]	µM	1.3
N#Cc1c(N)nc(N)nc1N[C@H](c1nc2c(Cl)cc(F)cc2c(=O)n1[C@H]1C[C@H](O)C1)C1CC1 [Compound 97]	µM	2.8

Req: Form field: reported IC50 of COCC(COC)n1c([C@H](C)Nc2nc(N)nc(N)c2C#N)nc2cccc(Cl)c2c1=O [Compound 131]
Resp: 1.4

Req: Form field: reported IC50 of N#CCCn1c([C@@H](Nc2nc(N)nc(N)c2C#N)C2CC2)nc2cccc(Cl)c2c1=O [Compound 112]
Resp: 0.062
